In this section we review reported pIC50 values for a set of compounds.
- TARGET_OR_SYSTEM: Recombinant human JAK1 catalytic domain (Homo sapiens (Human), UniProt P23458)
- Sequence (P23458 850-1154): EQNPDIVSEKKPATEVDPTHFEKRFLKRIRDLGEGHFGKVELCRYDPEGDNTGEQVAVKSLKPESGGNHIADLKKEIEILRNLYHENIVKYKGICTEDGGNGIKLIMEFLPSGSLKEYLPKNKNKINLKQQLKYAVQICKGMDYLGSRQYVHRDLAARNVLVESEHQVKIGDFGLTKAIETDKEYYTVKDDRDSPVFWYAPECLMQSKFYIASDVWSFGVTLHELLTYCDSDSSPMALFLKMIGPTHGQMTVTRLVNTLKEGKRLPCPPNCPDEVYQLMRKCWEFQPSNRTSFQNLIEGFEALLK
- ASSAY_PROCEDURE: JAK1 inhibition assay
- Format: biochemical
- APPLIED_CONDITIONS: semi-quantitative score
pIC50: −log10 of the molar value.

CN(Cc1ccc(-c2ccccn2)cc1)Cc1ccc(-c2cccc3nc(NC(=O)C4CC4)nn23)cc1
6.30 to 7.00

Exercise: Entry O=C(Nc1nc2cccc(-c3ccc(CNc4cc(C(F)(F)F)ccc4F)cc3)n2n1)C1CC1 : reported pIC50 = ?
Key: 6.30 to 7.00

Exercise: What do we get for CC(C)N(Cc1ccc(N2CCCCC2)cc1)C(=O)c1ccc(-c2cccc3nc(NC(=O)C4CC4)nn23)cc1 ?
Key: 6.30 to 7.00

Exercise: Again, but for CC(=O)Nc1ccc(COc2ccc(-c3cccc4nc(NC(=O)C5CC5)nn34)cc2)cc1
Key: > 7.00

Exercise: Queued: Cn1cnc(COc2ccc(-c3cccc4nc(NC(=O)C5CC5)nn34)cc2)n1
Key: > 7.00

Exercise: Record: COc1ccc(CCN(C)C(=O)c2ccc(-c3cccc4nc(NC(=O)C5CC5)nn34)cc2)cc1OC
Key: 6.30 to 7.00

Exercise: Try this compound next: Cc1cc(CNc2ccc(-c3cccc4nc(NC(=O)C5CC5)nn34)cn2)nn1C
Key: < 6.00

Exercise: Quick one: O=C(Cc1ccc(-c2cccc3nc(NC(=O)C4CC4)nn23)cc1)Nc1cccnc1
Key: > 7.00

Exercise: Now consider COc1c(F)ccc(NCc2ccc(-c3cccc4nc(NC(=O)C5CC5)nn34)cc2)c1F .
Key: > 7.00

Exercise: # iterate: N#Cc1ccc(COC2CN(C(=O)c3ccc(-c4cccc5nc(NC(=O)C6CC6)nn45)cc3)C2)cc1
Key: > 7.00

###

- System: MMP13 in SW1353 cells
- ASSAY_PROCEDURE: OSM/IL-1β signaling assay (MMP13 levels in SW1353 cells);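 further: secreted MMP13 captured by antibody, activated with APMA and its activity read by fluorescence, inhibition scaled between vehicle-treated triggered wells (0%) and untriggered wells (100%)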
- Assay type: cell-based
- APPLIED_CONDITIONS: Homo sapiens; SW1353 cells, OSM and IL-1β triggered, MMP13 levels 48 hours after triggering; read-out: MMP13 EC50
Listed next: entries and their corresponding EC50.

These solved cases illustrate the format of a correct answer.
O=C(Nc1nc2cccc(-c3ccc(-c4ccccc4)cc3)n2n1)C1CC1
> 1000 nM
O=C(Nc1nc2cccc(-c3ccc(OCc4ccc[n+]([O-])c4)cc3)n2n1)C1CC1
> 1000 nM
O=C(Nc1nc2cccc(-c3ccc(C(=O)N4CCC(F)CC4)cc3)n2n1)C1CC1
> 1000 nM

Exercise: Recorded EC50 of O=C(Nc1nc2cccc(-c3ccc(OCc4cccnc4)cc3)n2n1)C1CC1 , please.
Key: 501 to 1000 nM

Exercise: What about this molecule? O=C(Nc1nc2cccc(-c3ccc(CNc4c(F)cccc4F)cc3)n2n1)C1CC1
Key: 501 to 1000 nM

Exercise: Proceed to O=C(CCc1ccccc1)Nc1ccc(-c2cccc3nc(NC(=O)C4CC4)nn23)cc1
Key: 501 to 1000 nM

Exercise: Now this one: O=C(Nc1nc2cccc(-c3ccc(CNc4ncccn4)cc3)n2n1)C1CC1
Key: 501 to 1000 nM

Exercise: Same thing, different molecule: CC1CCCN(C(=O)c2ccc(-c3cccc4nc(NC(=O)C5CC5)nn34)cc2)C1 (centres unmarked)
Key: > 1000 nM

Exercise: Again, but for COC(=O)c1ccc(COc2ccc(-c3cccc4nc(NC(=O)C5CC5)nn34)cc2)nc1
Key: > 1000 nM

Exercise: How about O=C(Nc1nc2cccc(-c3ccc(OCCn4cccn4)cc3)n2n1)C1CC1 ?
Key: > 1000 nM

Exercise: Also, O=C(Nc1nc2cccc(-c3ccc(OCc4ccc(-n5cccn5)cc4)cc3)n2n1)C1CC1 please.
Key: > 1000 nM

Exercise: Thanks! And NC(=O)c1ccc(NCc2ccc(-c3cccc4nc(NC(=O)C5CC5)nn34)cc2)cc1 ?
Key: 501 to 1000 nM

Exercise: Next molecule: O=C(Nc1nc2cccc(-c3ccc(CN4CCN(CC(F)(F)F)CC4)cc3)n2n1)C1CC1
Key: > 1000 nM

Exercise: Same question for O=C(Nc1nc2cccc(-c3ccc(CNc4ccccn4)cc3)n2n1)C1CC1 please.
Key: 501 to 1000 nM

Exercise: Another: O=C(Nc1nc2cccc(-c3ccc(CN4CCC(C(F)(F)F)CC4)cc3)n2n1)C1CC1
Key: > 1000 nM

Exercise: Similarly, O=C(Nc1nc2cccc(-c3ccc(NS(=O)(=O)c4ccccc4F)cc3)n2n1)C1CC1 ?
Key: > 1000 nM

Exercise: Likewise for O=C(Nc1nc2cccc(-c3ccc(OCc4ccc(C(F)(F)F)nc4)cc3)n2n1)C1CC1 ?
Key: 501 to 1000 nM
